tested on: A549; experiment: Cytotoxicity against human A549 cells after 24 hrs by MTT assay; format: functional, cell-based; details: A549, 24 h
Below: a set of entries, each annotated with reported pIC50.
Field pIC50 (float): negative decimal logarithm of the concentration in molar.

Past entries and their recorded results:
Measured on A549, C#CCn1c(=O)c(/C=C/C(=O)/C=C(O)/C=C/c2ccc(O)c(OC)c2)cc2cc(C)ccc21 has a documented pIC50 of 4.62

Measured on A549, C#CCn1c(=O)c(/C=C/C(=O)/C=C(O)/C=C/c2ccc(O)c(OC)c2)cc2ccccc21 has a documented pIC50 of 4.67

Turning to the following compound.
Measured on A549, C#CCn1c(=O)c(/C=C/C(=O)/C=C(O)/C=C/c2ccc(O)c(OC)c2)cc2cc(OC)ccc21 has a documented pIC50 of 4.69

###

Below: a set of entries, each annotated with reported IC50.
test system: A549; experiment: Cytotoxicity against human A549 cells after 24 hrs by MTT assay; format: functional, cell-based; conditions: A549, 24 h
The figure you give is taken to be in µM; do not add the unit.

Past entries and their recorded results:
The compound identified as O=C(/C=C(O)/C=C/c1cc2ccccc2[nH]c1=O)/C=C/c1cc2ccccc2[nH]c1=O registered its IC50 at 69.1

The compound identified as COc1cc(/C=C/C(=O)CC(=O)/C=C/c2ccc(O)c(OC)c2)ccc1O registered its IC50 at 60.2

Others:
The compound identified as C=CCn1c(=O)c(/C=C/C(=O)/C=C(O)/C=C/c2ccc(O)c(OC)c2)cc2ccccc21 registered its IC50 at 31.3

The compound identified as C#CCn1c(=O)c(/C=C/C(=O)/C=C(O)/C=C/c2ccc(O)c(OC)c2)cc2cc(F)ccc21 registered its IC50 at 40.5

###

tested on: A549; test: Cytotoxicity against human A549 cells after 24 hrs by MTT assay; assay type: functional, cell-based; settings: A549, 24 h
pIC50: −log10 of the molar value.
quantity_measured: pIC50

Past entries and their recorded results:
The compound identified as C#CCn1c(=O)c(C=O)cc2cc(Cl)ccc21 registered its pIC50 at < 4.00

The compound identified as C#CCn1c(=O)c(C=O)cc2ccccc21 registered its pIC50 at < 4.00

Others:
The compound identified as C#CCn1c(=O)c(C=O)cc2cc(C)ccc21 registered its pIC50 at < 4.00
